Origin of values: PubChem BioAssay

Measured composite z-score, listed per entry for reference.
- targetOfAssay: Neurogenic locus notch homolog protein 2 (Homo sapiens) (UniProt Q04721)
- Sequence (Q04721 whole entry, looked up): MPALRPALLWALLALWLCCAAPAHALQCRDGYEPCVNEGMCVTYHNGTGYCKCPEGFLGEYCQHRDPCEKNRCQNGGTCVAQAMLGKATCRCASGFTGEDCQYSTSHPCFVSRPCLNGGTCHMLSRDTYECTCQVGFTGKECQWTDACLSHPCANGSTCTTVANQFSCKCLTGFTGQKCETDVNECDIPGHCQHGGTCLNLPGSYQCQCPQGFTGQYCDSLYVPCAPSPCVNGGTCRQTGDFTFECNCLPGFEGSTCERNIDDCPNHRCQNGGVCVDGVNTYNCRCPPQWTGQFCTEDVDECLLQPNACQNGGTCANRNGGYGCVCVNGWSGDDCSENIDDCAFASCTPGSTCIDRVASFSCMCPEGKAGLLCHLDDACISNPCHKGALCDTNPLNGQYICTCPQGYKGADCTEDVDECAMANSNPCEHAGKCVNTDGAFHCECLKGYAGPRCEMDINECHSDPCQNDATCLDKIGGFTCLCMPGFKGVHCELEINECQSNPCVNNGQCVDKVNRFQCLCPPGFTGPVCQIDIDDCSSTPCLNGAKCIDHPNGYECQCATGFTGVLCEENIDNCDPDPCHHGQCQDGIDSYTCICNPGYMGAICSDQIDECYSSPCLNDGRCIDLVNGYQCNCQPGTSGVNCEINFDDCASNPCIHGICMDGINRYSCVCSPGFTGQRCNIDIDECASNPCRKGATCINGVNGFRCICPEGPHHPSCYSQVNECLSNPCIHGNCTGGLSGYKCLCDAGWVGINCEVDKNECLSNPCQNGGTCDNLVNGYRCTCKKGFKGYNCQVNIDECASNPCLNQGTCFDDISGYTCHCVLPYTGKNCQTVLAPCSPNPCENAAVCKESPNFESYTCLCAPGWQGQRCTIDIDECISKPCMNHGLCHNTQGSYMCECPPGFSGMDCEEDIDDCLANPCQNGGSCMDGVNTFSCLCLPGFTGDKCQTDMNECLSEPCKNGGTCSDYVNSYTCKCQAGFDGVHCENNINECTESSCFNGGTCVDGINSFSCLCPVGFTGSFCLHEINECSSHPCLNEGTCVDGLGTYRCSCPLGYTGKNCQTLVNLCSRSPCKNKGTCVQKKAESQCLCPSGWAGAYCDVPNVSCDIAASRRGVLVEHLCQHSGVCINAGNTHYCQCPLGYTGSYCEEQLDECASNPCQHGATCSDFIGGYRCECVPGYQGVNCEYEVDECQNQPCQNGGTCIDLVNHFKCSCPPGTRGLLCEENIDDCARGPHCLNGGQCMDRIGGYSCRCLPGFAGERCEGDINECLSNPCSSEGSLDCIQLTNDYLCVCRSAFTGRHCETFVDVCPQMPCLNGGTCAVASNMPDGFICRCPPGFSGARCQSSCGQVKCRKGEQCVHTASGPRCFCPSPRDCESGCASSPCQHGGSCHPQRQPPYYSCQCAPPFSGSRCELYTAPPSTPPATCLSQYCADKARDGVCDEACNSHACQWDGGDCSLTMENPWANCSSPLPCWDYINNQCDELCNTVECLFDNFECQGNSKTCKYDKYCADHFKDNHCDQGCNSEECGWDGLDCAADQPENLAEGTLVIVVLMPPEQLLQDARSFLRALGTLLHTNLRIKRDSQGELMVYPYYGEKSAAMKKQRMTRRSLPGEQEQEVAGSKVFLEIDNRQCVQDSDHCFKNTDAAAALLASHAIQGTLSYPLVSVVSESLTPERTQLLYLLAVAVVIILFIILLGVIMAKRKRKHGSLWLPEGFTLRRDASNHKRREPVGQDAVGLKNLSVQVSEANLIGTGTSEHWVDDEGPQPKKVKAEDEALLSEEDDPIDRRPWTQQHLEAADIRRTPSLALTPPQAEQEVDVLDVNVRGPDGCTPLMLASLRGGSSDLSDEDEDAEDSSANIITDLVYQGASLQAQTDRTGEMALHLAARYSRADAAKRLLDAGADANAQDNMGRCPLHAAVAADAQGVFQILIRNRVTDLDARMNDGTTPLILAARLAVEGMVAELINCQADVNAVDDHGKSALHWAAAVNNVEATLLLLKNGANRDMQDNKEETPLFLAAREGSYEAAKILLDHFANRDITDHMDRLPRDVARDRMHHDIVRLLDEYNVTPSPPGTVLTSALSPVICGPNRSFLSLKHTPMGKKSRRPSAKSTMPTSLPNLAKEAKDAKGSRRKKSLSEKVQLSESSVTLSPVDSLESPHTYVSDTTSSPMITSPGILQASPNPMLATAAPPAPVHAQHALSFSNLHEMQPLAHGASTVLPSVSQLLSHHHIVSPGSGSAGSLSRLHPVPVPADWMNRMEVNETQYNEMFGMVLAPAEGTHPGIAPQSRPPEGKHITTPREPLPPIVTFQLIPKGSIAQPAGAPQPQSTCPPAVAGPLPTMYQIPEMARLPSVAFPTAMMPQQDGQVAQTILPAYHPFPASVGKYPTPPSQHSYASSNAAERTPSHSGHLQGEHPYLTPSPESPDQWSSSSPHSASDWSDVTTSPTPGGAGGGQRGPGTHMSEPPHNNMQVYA
- assayDetails: Notch2 binders on small-molecule microarrays, primary screen, biochemical, small-molecule microarray, 635 nm fluorescence, stem cell growth factors (AID 1073)
- conditionsUsed: Notch2 binding, higher = more signal
assayEndpoint: composite z-score

INSERT INTO measurements (compound, result) VALUES
  ('O=C(NN=C1C[C@@H](O)[C@@H](O)[C@@H]2[C@@H]3C(=O)N(C[C@@H]4CCCO4)C(=O)[C@@H]3CC[C@@H]12)OCc1ccccc1', -0.122),
  ('O=C1C[C@@H](O)[C@@H](O)[C@@H]2[C@@H]3C(=O)N(C[C@@H]4CCCO4)C(=O)[C@@H]3CC[C@@H]12', 0.686),
  ('CC(=O)OC[C@H]1O[C@H](C#Cc2ccccc2)C=C[C@@H]1OC(C)=O', 0.32),
  ('COC(=O)CC=C[C@@H](C)[C@@H](C=NOC(C)CN1CCCc2nc(C)c(C)cc21)OC (stereo partly specified)', 0.401),
  ('CC(C)CCN1CCc2nc(COc3ccccc3)c3c(c2C1)CO[C@@H](C)C3', -0.0065),
  ('CO[C@H]1COC(=O)CC=C[C@@H](C)[C@H](NS(=O)(=O)c2ccc(C)cc2)COC(=O)CCC[C@@H]1C', 0.18);
